Values were extracted from PubChem BioAssay AID1159580.

Assay procedure: chemical genetic growth profiling, strain panel (AID 1159580);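 further: tested at 20 µM; growth read once vehicle control cultures reached saturation at 30 °C; 1 = growth at the plate median or of vehicle wells; lower values mean less growth of the strain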
Setup conditions: S. cerevisiae deletion strains, growth OD, locus YLR357W, strain rsc2, active compounds read low
About 2,000 (36%) of roughly 5,500 compounds were called active. Not shown: some 18% with an inconclusive outcome. The list shows a part of the results.
Readout label: normalized growth
Please give the numeric answer without any surrounding text.

> print(dat)
                                   compound  reported.result
1  CC(C)[N+](C)(CCC(C(N)=O)(c1ccccc1)c1ccccc1)C(C)C            0.971

Endpoint output: normalized growth of CC(CC(O)C1OC1(C)C)[C@@H]1CCC2(C)C3=CCC4C(C)(C)C(=O)CCC4(C)C3CC[C@@]12C (stereo not given in full) . Value?
1.02

What about this compound? COC(=O)[C@@]1(C)CCC[C@]2(C)c3ccc(O)c(C(C)C)c3CCC12 (stereo not given in full)
1

What about this compound? CC(CC(C(N)=O)(c1ccccc1)c1ccccc1)N(C)C (stereo not given)
0.992

What about this compound? COC(=O)[C@]1(C)CCC[C@]2(C)c3ccc(C(C)C)cc3C(=O)CC12 (stereo not given in full)
0.989

* * *

Assay procedure: chemical genetic growth profiling, strain panel (AID 1159580)
Setup conditions: S. cerevisiae deletion strains, growth OD, locus YCR088W, strain abp1, active compounds read low
In all, about 5,500 compounds went through this assay and about 2,000 (36%) were called active. Inconclusive results (about 18%) are left out. The list shows a part of the results.
Readings of normalized growth for the listed compounds

> print(dat)
                                   compound  reported.result
1  C=CC1C2=CCOC(=O)C2=COC1OC1OC(CO)C(O)C(O)C1O (stereo not given)  1.02 (inactive)
2     CN(C)c1ccc2nc3ccc(=[N+](C)C)cc-3sc2c1  1.07 (inactive)

Endpoint output: normalized growth of "C=C(C)[C@H]1COc2cc3oc(=O)ccc3cc2O1" . Value?
0.814 (active)

What about this compound? Oc1cc2c(cc1O)C1c3ccc(O)c(O)c3OCC1(O)C2 (stereo not given)
1.02 (inactive)

What about this compound? "COc1ccc(-c2cc(=O)c3c(O)cc(O[C@H]4O[C@H](CO[C@@H]5O[C@@H](C)[C@H](O)[C@@H](O)[C@H]5O)[C@@H](O)[C@H](O)[C@H]4O)cc3o2)cc1"
1.01 (inactive)

What about this compound? CCC(c1ccc(O)cc1)C(CC)c1ccc(O)cc1 (stereo not given)
0.974 (inactive)

What about this compound? "CNC(=O)Oc1cccc2c1OC(C)(C)O2"
1 (inactive)

What about this compound? C[C@@H]1CC[C@@]2(NC1)O[C@H]1C[C@H]3C4CC=C5C[C@@H](O)CC[C@]5(C)C4CC[C@]3(C)C1[C@@H]2C (stereo not given in full)
0.0699 (active)

What about this compound? NS(=O)(=O)c1cc(C2(O)NC(=O)c3ccccc32)ccc1Cl (stereo not given)
0.994 (inactive)

What about this compound? OCC(O)C(O)C(O)C(O)C(O)CO (stereo not given)
0.989 (inactive)

What about this compound? "NC(N)=NC(=O)c1nc(Cl)c(N)nc1N"
1.03 (inactive)

What about this compound? O=C(OC1Cc2c(O)cc(O)cc2OC1c1cc(=O)c(O)c2c(O)c(O)cc(C3Oc4cc(O)cc(O)c4CC3O)c2c1)c1cc(O)c(O)c(O)c1 (stereo not given)
1 (inactive)

What about this compound? O=c1ccc2cc(OC3OC(CO)C(O)C(O)C3O)c(O)cc2o1 (stereo not given)
0.985 (inactive)

What about this compound? COC(=O)[C@]1(C)CCC[C@]2(C)c3ccc(C(C)C)cc3C(=O)CC12 (stereo not given in full)
0.96 (inactive)

What about this compound? CC(=O)Oc1ccc2c(c1C(C)C)CCC1C(C)(C)CCC[C@]21C (stereo not given in full)
1.02 (inactive)

What about this compound? "Cc1[nH]ccc2c1[nH]c1cc(=O)ccc12"
0.998 (inactive)

What about this compound? "COc1cc(O)c2c(=O)c(O)c(-c3ccc(O)c(O)c3)oc2c1"
0.912 (active)

What about this compound? CC1CC[C@@]2(OC1)O[C@H]1CC3C4CC[C@@H]5C[C@@H](O)CC[C@]5(C)C4CC[C@]3(C)[C@H]1[C@@H]2C (stereo not given in full)
1.03 (inactive)

What about this compound? "CCC(=O)c1c(O)cc(O)cc1O"
0.991 (inactive)

What about this compound? "O=C(O[C@@H]1Cc2c(O)cc(O)cc2O[C@@H]1c1cc(O)c(=O)c2c(O)c(O)cc([C@H]3Oc4cc(O)cc(O)c4C[C@H]3O)c2c1)c1cc(O)c(O)c(O)c1"
0.911 (active)

What about this compound? N#Cc1nn(-c2c(Cl)cc(C(F)(F)F)cc2Cl)c(N)c1S(=O)C(F)(F)F (stereo not given)
0.993 (inactive)

* * *

Assay procedure: chemical genetic growth profiling, strain panel (AID 1159580)
Setup conditions: S. cerevisiae deletion strains, growth OD, locus YLR342W, strain FKS1 (second series), active compounds read low
Hit rate of the full screen: of about 5,500 compounds, about 2,000 (36%) were called active. Inconclusive results (about 18%) are left out. Some of the results follow.
Readout label: normalized growth
Please give the numeric answer without any surrounding text.

Look over these answered cases.
Compound	normalized growth
O=c1c(O)c(-c2cc(O)c(O)c(O)c2)oc2cc(O)cc(O)c12	1.04
CC(=O)Oc1ccc2c(c1C(C)C)CCC1C(C)(C)CCC[C@]21C (stereo not given in full)	1.01
CC(C)C1COc2cc3oc(=O)ccc3cc2O1 (stereo not given)	0.0669
CC(C)[N+](C)(CCC(C(N)=O)(c1ccccc1)c1ccccc1)C(C)C	1.02
CC(C)c1c(O)ccc2c1CCC1[C@@](C)(C=O)CCC[C@]21C (stereo not given in full)	0.208

Endpoint output: normalized growth of "CC[n+]1c(-c2ccccc2)c2cc(N)ccc2c2ccc(N)cc21" . Value?
0.86

What about this compound? O=C1C=C2C(=CCOC2O)O1 (stereo not given)
0.774

What about this compound? C[C@@H]1O[C@@H](OC[C@H]2OC(Oc3c(-c4ccc(OCCO)c(OCCO)c4)oc4cc(OCCO)cc(O)c4c3=O)[C@H](O)[C@@H](O)[C@@H]2O)[C@H](O)[C@H](O)[C@H]1O (stereo not given in full)
0.985

What about this compound? CC(C)N(CCC(C(N)=O)(c1ccccc1)c1ccccn1)C(C)C (stereo not given)
1.02

What about this compound? "CCc1cccc(CC)c1N(COC)C(=O)CCl"
1

* * *

Assay procedure: chemical genetic growth profiling, strain panel (AID 1159580);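 further: tested at 20 µM; growth read once vehicle control cultures reached saturation at 30 °C; 1 = growth at the plate median or of vehicle wells; lower values mean less growth of the strain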
Setup conditions: S. cerevisiae deletion strains, growth OD, locus YGR229C, strain SMI1, active compounds read low
About 2,000 (36%) of roughly 5,500 compounds were called active. Not shown: some 18% with an inconclusive outcome. The list shows a part of the results.
Readout label: normalized growth
Please give the numeric answer without any surrounding text.

Look over these answered cases.
Compound	Reported result
CC(C)(C)c1cc(C=C(C#N)C#N)cc(C(C)(C)C)c1O	1.02
O=C1NN=C2C3CC4CC12CC1(C3)C(=O)NN=C41	1
CCC1(O)CC2CN(CCc3c([nH]c4ccccc34)[C@@](C(=O)OC)(c3cc4c(cc3OC)N(C=O)C3[C@]45CCN4CC=C[C@@](CC)([C@@H](OC(C)=O)[C@]3(O)C(=O)OC)[C@H]45)C2)C1 (stereo partly specified)	0.983
N#C/C(=C/c1ccc(O)c(O)c1)C(N)=S	0.972
CCOC(=O)c1c(C)cc(OC)cc1O	0.972

Endpoint output: normalized growth of "COc1cc(/C=C(\C#N)C(=O)c2ccc(O)c(O)c2)cc(I)c1O" . Value?
0.971

* * *

Assay procedure: chemical genetic growth profiling, strain panel (AID 1159580);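 further: tested at 20 µM; growth read once vehicle control cultures reached saturation at 30 °C; 1 = growth at the plate median or of vehicle wells; lower values mean less growth of the strain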
Setup conditions: S. cerevisiae deletion strains, growth OD, locus YLR262C, strain YPT6, active compounds read low
Out of some 5,500 compounds screened, about 2,000 (36%) were called active. Roughly 18% stayed inconclusive and do not appear here. This is one part of the list.
Readout label: normalized growth
Please give the numeric answer without any surrounding text.

Look over these answered cases.
> print(dat)
                                   molecule      readout.label  reported.result
1    C=C1SC(Nc2cccc(C(F)(F)F)c2)=NC12CCCCC2  normalized growth            0.971
2  C[N+](C)(C)CC(O)CC(=O)O (stereo not drawn)  normalized growth             1.02

Endpoint output: normalized growth of "COc1cc(OC)c2c(=O)c(OC)c(-c3ccc(OC)c(OC)c3)oc2c1" . Value?
0.984

* * *

Readings of normalized growth for the listed compounds
Assay procedure: chemical genetic growth profiling, strain panel (AID 1159580);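 further: tested at 20 µM; growth read once vehicle control cultures reached saturation at 30 °C; 1 = growth at the plate median or of vehicle wells; lower values mean less growth of the strain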
Setup conditions: S. cerevisiae deletion strains, growth OD, locus YJR075W, strain HOC1, active compounds read low
Out of some 5,500 compounds screened, about 2,000 (36%) were called active. Roughly 18% stayed inconclusive and do not appear here. This is one part of the list.
Please give the numeric answer without any surrounding text.

Look over these answered cases.
> print(dat)
                                   compound  reported.result
1  O=c1cc(-c2ccc(O)cc2)oc2cc(O[C@@H]3O[C@H](CO)[C@@H](O)[C@H](O)[C@H]3O)cc(O)c12            0.993
2  C[C@@H]1CC[C@@]2(OC1)O[C@H]1CC3C4CC[C@H]5C[C@@H](O)CC[C@]5(C)C4CC[C@]3(C)[C@H]1[C@@H]2C (stereo not given in full)            0.981
3        Clc1ccc(C=C2c3ccccc3-c3ccccc32)cc1            0.979
4  O=C1NC(=O)C(c2ccccc2[N+](=O)[O-])=C1Nc1ccc(O)c(Cl)c1                1
5                    Brc1ccc(-c2ccn[nH]2)s1            0.971
6  COc1ccc2c3c1OC1C(O)CC=C4C(C2)N(C)CCC431 (stereo not given)             1.02
7          CN(C)c1nc(N)c(C(=O)N=C(N)N)nc1Cl             1.01
8  COc1cc(OC)c2c(=O)c(OC)c(-c3ccc(OC)c(OC)c3)oc2c1            0.986

Endpoint output: normalized growth of "NC(N)=NC(=O)c1nc(Cl)c(N)nc1N" . Value?
1.02

What about this compound? "CCOC(=O)N/N=C\c1ccccc1OCC"
0.985

What about this compound? COC(=O)C1OC(=O)C2OC23C1(C)CCC1C2(C)C(OC(C)=O)CC(OC(C)=O)C(C)(C)C2CC(=O)C13C (stereo not given)
1.01
